Just for reference, patent US7199131B2 is where these values come from.

- Tested on: tumor necrosis factor (α)
- Assay explanation: Cytokine Induction in Human Cells: tumor necrosis factor (α) secreted by PBMCs, ELISA
- Format: cell-based
- Protocol conditions: PBMC, incubated 18 to 24 hours, lowest concentration found to induce tumor necrosis factor
Assignment: determine reported minimal effective concentration for the given molecules.
Answers are plain numbers, in µM.

- Compound structure string: "COCCc1nc2c(N)nc3c(c2n1CCCNS(C)(=O)=O)CCCC3"
  U: "µM"
  minimal effective concentration: 10

Record minimal effective concentration per entry; entries follow.
1. CCCCCc1nc2c(N)nc3c(c2n1CCCCNS(C)(=O)=O)CCCC3
2. CCCCc1nc2c(N)nc3ccccc3c2n1CCCCCCCCNS(C)(=O)=O
3. COCCc1nc2c(N)nc3ccccc3c2n1CCCCCCCCNS(C)(=O)=O
4. CCCCCc1nc2c(N)nc3ccccc3c2n1CCCCNS(=O)(=O)c1ccccc1
5. CCCCc1nc2c(N)nc3ccccc3c2n1CCNS(=O)(=O)c1ccc(C)cc1

### Response
1. 1.11
2. 0.01
3. 0.01
4. 10
5. 1.11

Record minimal effective concentration per entry; entries follow.
1. CCCCc1nc2c(N)nc3ccccc3c2n1CCCCCCCCNS(=O)(=O)c1ccccc1
2. CCCCCCc1nc2c(N)nc3ccccc3c2n1CCCCNS(C)(=O)=O

### Response
1: 0.01; 2: 1.11

---

Attribute measured: melting point

- Compound: "COCCc1nc2c(N)nc3ccccc3c2n1CCCCCCCCNS(C)(=O)=O"
  Attribute measured: "melting point"
  Endpoint value: "109 to 110 °C"
- Compound: "CCCCCCc1nc2c(N)nc3ccccc3c2n1CCCCNS(C)(=O)=O"
  Attribute measured: "melting point"
  Endpoint value: "170.2 to 171.1 °C"
- Compound: "Cc1nc2c(N)nc3ccccc3c2n1CCCNS(C)(=O)=O"
  Attribute measured: "melting point"
  Endpoint value: "236 to 238 °C"
- Compound: "COCCc1nc2c(N)nc3ccccc3c2n1CC(C)(C)CNS(C)(=O)=O"
  Attribute measured: "melting point"
  Endpoint value: "204 to 206 °C"
- Compound: "Nc1nc2ccccc2c2c1nc(-c1ccccc1)n2CCCCNS(=O)(=O)c1ccc(F)cc1"
  Attribute measured: "melting point"
  Endpoint value: "214 to 216 °C"

Record melting point per entry; entries follow.
1. CS(=O)(=O)NCCCCn1c(CCCOc2ccccc2)nc2c(N)nc3ccccc3c21
2. COCCc1nc2c(N)nc3c(c2n1CCCNS(C)(=O)=O)CCCC3
3. CCCCc1nc2c(N)nc3ccccc3c2n1CCCCN1CCCS1(=O)=O
4. CCCCc1nc2c(N)nc3ccccc3c2n1CCCCNS(=O)(=O)c1cccc2cnccc12
5. CCCCc1nc2c(N)nc3ccccc3c2n1CCCNS(=O)(=O)c1ccc(C)cc1

### Response
156.4 to 157.1 °C
150 to 152 °C
173 to 176 °C
96 °C (dec.)
197 to 198.5 °C

---

- Tested on: tumor necrosis factor (α)
- Assay explanation: Cytokine Induction in Human Cells: tumor necrosis factor (α) secreted by PBMCs, ELISA
- Type: cell-based
- Protocol conditions: PBMC, incubated 18 to 24 hours, lowest concentration found to induce tumor necrosis factor
Attribute measured: minimal effective concentration (µM)
Answers are plain numbers, in µM.

Observe how each entry below is paired with its result.
- Compound structure string: "CCCc1nc2c(N)nc3ccccc3c2n1CCCCNS(=O)(=O)c1ccccc1"
  minimal effective concentration (µM): 1.11
- Compound structure string: "CCCCc1nc2c(N)nc3ccccc3c2n1CCCNS(C)(=O)=O"
  minimal effective concentration (µM): 1.11
- Compound structure string: "CCCCc1nc2c(N)nc3ccccc3c2n1CCNS(C)(=O)=O"
  minimal effective concentration (µM): 0.04

Record minimal effective concentration per entry; entries follow.
1. CCCCCc1nc2c(N)nc3ccccc3c2n1CCCCNS(C)(=O)=O
2. Cc1nc2c(N)nc3ccccc3c2n1CCCCNS(C)(=O)=O

### Response
[0.12, 0.37]

Record minimal effective concentration per entry; entries follow.
1. COCCc1nc2c(N)nc3ccccc3c2n1CCCNS(=O)(=O)c1ccc(C)cc1
2. CS(=O)(=O)NCCCCn1c(CCCOc2ccccc2)nc2c(N)nc3ccccc3c21
3. CS(=O)(=O)NCCCn1c(CCCOc2ccccc2)nc2c(N)nc3ccccc3c21

### Response
0.12
10
10

Record minimal effective concentration per entry; entries follow.
1. CCCCc1nc2c(N)nc3ccccc3c2n1CCCCN1CCCS1(=O)=O
2. CCc1nc2c(N)nc3ccccc3c2n1CCCCNS(=O)(=O)c1ccccc1
3. CCOCc1nc2c(N)nc3ccccc3c2n1CCCNS(C)(=O)=O
4. CCc1nc2c(N)nc3ccccc3c2n1CCCCNS(C)(=O)=O

### Response
[0.12, 1.11, 3.33, 0.12]

Record minimal effective concentration per entry; entries follow.
1. CCCCc1nc2c(N)nc3ccccc3c2n1CCCCNS(=O)(=O)C[C@@]12CC[C@@H](CC1=O)C2(C)C
2. COCCc1nc2c(N)nc3ccccc3c2n1CCCNS(C)(=O)=O
3. COCCc1nc2c(N)nc3ccccc3c2n1CCCNS(=O)(=O)c1ccccc1
4. Cc1nc2c(N)nc3ccccc3c2n1CCCNS(C)(=O)=O

### Response
1. 1
2. 0.01
3. 1.11
4. 10

### Prompt # assay system tumor necrosis factor (α): give minimal effective concentration of "CCCCc1nc2c(N)nc3ccccc3c2n1CCCNS(=O)(=O)c1ccccc1"
### Response 3.33
